Assay: Oral bioavailability in rat at 30 mg/kg
Type: ADME, organism-based
Condition: in vivo
Observed property: bioavailability
Note: a bare number is incomplete; add the unit.

Q: Data request, read-out bioavailability, for CC(C)CC1NC(=O)C2(CCN(Cc3ccc(Oc4ccccc4)cc3)CC2)N(CCC(C)O)C1=O.Cl (racemic)
Ans: 34.1%

---

Tested on: Liver microsomes
Assay: Metabolic stability in rat liver microsomes assessed as compound remaining at 0.5 mg/ml after 15 mins
Format: ADME, Microsome
Condition: microsomes, 0.25 h
Kindly supply the reported Stability values for the records listed here.
Answers are plain numbers, in %.

// known answers, use as guide
[
  {
    "Compound": "CCCCN1C(=O)[C@H](CC2CCCCC2)NC(=O)C12CCN(Cc1ccc(Oc3ccc(O)cc3)cc1)CC2.Cl",
    "Experimental result": 22
  },
  {
    "Compound": "CCCCN1C(=O)[C@H](CC2CCCCC2)NC(=O)C12CCN(Cc1ccc(Oc3ccc(NS(C)(=O)=O)cc3)cc1)CC2.Cl",
    "Experimental result": 15
  },
  {
    "Compound": "CCCCN1C(=O)[C@H](CC2CCCCC2)NC(=O)C12CCN(Cc1ccc(Oc3ccc(C)cc3)cc1)CC2.Cl",
    "Experimental result": 48
  }
]

Here are 7 compounds. What values of Stability were reported for them?
1. CCCCN1C(=O)[C@H](CC2CCCCC2)NC(=O)C12CCN(Cc1ccc(Oc3ccc(S(N)(=O)=O)cc3)cc1)CC2.Cl
2. CCCCN1C(=O)[C@H](CC2CCCCC2)NC(=O)C12CCN(Cc1ccc(C(=O)Nc3ccccc3)cc1)CC2.Cl
3. CCCCN1C(=O)[C@H](CC2CCCCC2)NC(=O)C12CCN(Cc1ccc(S(=O)(=O)c3ccccc3)cc1)CC2.Cl
4. CCCCN1C(=O)[C@H](CC2CCCCC2)NC(=O)C12CCN(Cc1ccc(Oc3ccc(OC)cc3)cc1)CC2.Cl
5. CCCCN1C(=O)[C@H](CC2CCCCC2)NC(=O)C12CCN(Cc1ccc(Oc3ccc(F)cc3)cc1)CC2.Cl
6. CCCCN1C(=O)[C@H](CC2CCCCC2)NC(=O)C12CCN(Cc1ccc(Sc3ccccc3)cc1)CC2.Cl
7. CCCCN1C(=O)C(CC2CCCCC2)NC(=O)C12CCN(Cc1ccc(Oc3ccccc3)nc1)CC2.Cl.Cl (racemic)

Ans:
1. 24
2. 29
3. 19
4. 34
5. 53
6. 38
7. 10

---

System: Liver microsomes
Assay: Metabolic stability in rat liver microsomes assessed as compound remaining at 0.5 mg/ml after 15 mins
Assay type: ADME, Microsome
Condition: microsomes, 0.25 h
Observed property: Stability (%)
Give bare numbers, in %.

[
  {
    "Compound": "CCCCN1C(=O)[C@H](CC2CCCCC2)NC(=O)C12CCN(Cc1ccc(C(=O)c3ccccc3)cc1)CC2.Cl",
    "Units of measure": "%",
    "Experimental result": 23
  },
  {
    "Compound": "CCCCN1C(=O)C(CC2CCCCC2)NC(=O)C12CCN(Cc1c(C)nn(-c3ccccc3)c1C)CC2.Cl.Cl (racemic)",
    "Units of measure": "%",
    "Experimental result": 23
  },
  {
    "Compound": "CCCCN1C(=O)[C@H](CC2CCCCC2)NC(=O)C12CCN(Cc1ccc(-c3cccnc3)cc1)CC2.Cl.Cl",
    "Units of measure": "%",
    "Experimental result": 29
  }
]

Turning now to a further compound:
Q: Quick one: Stability of "CCCCN1C(=O)[C@H](CC2CCCCC2)NC(=O)C12CCN(Cc1ccc(Oc3ccc(C(=O)NC)cc3)cc1)CC2.Cl" ?
Ans: 4

---

What solubility was measured for each of the following?
Assay: Aqueous solubility of the compound
Format: physicochemical
Condition: buffer
Give bare numbers, in µM.

Here is how some compounds turned out for solubility.
[
  {
    "Compound": "CCCCN1C(=O)[C@H](CC2CCCCC2)NC(=O)C12CCN(Cc1ccc(Oc3ccc(C(=O)O)cc3)cc1)CC2.Cl",
    "Experimental result": 29
  },
  {
    "Compound": "CCCCN1C(=O)[C@H](CC2CCCCC2)NC(=O)C12CCN(Cc1ccc(Oc3ccc(C(=O)NC)cc3)cc1)CC2.Cl",
    "Experimental result": 6
  }
]

Now let's try a different one.
Q: Can you share its solubility? I mean this compound: CCCCN1C(=O)C(CC(C)C)NC(=O)C12CCN(Cc1ccc(Oc3ccccc3)cc1)CC2.Cl (racemic)
Ans: 14

---

Assay: Half life in rat at 30 mg/kg, po
Type: ADME, organism-based
Design: dose 30 mg/kg, route oral
Condition: in vivo
Observed property: half-life (h)
Give bare numbers, in h.

[
  {
    "Compound": "CCCCN1C(=O)C(CC(C)C)NC(=O)C12CCN(Cc1ccc(Oc3ccccc3)cc1)CC2.Cl (racemic)",
    "half-life (h)": 1.26
  },
  {
    "Compound": "CC(C)CC1NC(=O)C2(CCN(Cc3ccc(Oc4ccccc4)cc3)CC2)N(CCC(C)O)C1=O.Cl (racemic)",
    "half-life (h)": 0.807
  },
  {
    "Compound": "CCCCN1C(=O)[C@H](CC2CCCCC2)NC(=O)C12CCN(Cc1ccc(Oc3ccc(C(=O)NC)cc3)cc1)CC2.Cl",
    "half-life (h)": 1.21
  }
]

Kindly review the next compound as well.
Q: Reported half-life, compound "CCCCN1C(=O)[C@H](CC2CCCCC2)NC(=O)C12CCN(Cc1ccc(Oc3ccc(O)cc3)cc1)CC2.Cl" : ____
Ans: 3.42

---

Assay: Cmax in rat at 30 mg/kg, po
Type: ADME, organism-based
Set-up: dose 30 mg/kg, route oral
Condition: in vivo
Observed property: Cmax (ng/mL)
Give bare numbers, in ng/mL.

Some compounds with recorded Cmax:
[
  {
    "Compound": "CCCCN1C(=O)[C@H](CC2CCCCC2)NC(=O)C12CCN(Cc1ccc(Oc3ccc(O)cc3)cc1)CC2.Cl",
    "Cmax, ng/mL": 100
  },
  {
    "Compound": "CC(C)CC1NC(=O)C2(CCN(Cc3ccc(Oc4ccccc4)cc3)CC2)N(CCC(C)O)C1=O.Cl (racemic)",
    "Cmax, ng/mL": 7200
  }
]

Q: Could you share which Cmax value was measured for CCCCN1C(=O)C(CC(C)C)NC(=O)C12CCN(Cc1ccc(Oc3ccccc3)cc1)CC2.Cl (racemic) ?
Ans: 100

---

System: Liver microsomes
Assay: Half life in rat liver microsome at 0.2 mg/ml
Type: ADME
Consider the cut-off 10 min. If the recorded t1/2 is strictly smaller, the label is class 1; if not, the label is class 0.

[
  {
    "Compound": "CC#CCN1C(=O)C(CC(C)C)NC(=O)C12CCN(Cc1ccc(Oc3ccccc3)cc1)CC2.Cl (racemic)",
    "Group": "class 0"
  },
  {
    "Compound": "CCCCN1C(=O)C(CCCC2CCCCC2)NC(=O)C12CCN(Cc1ccc(Oc3ccccc3)cc1)CC2.Cl (racemic)",
    "Group": "class 0"
  },
  {
    "Compound": "CC(C)CC1NC(=O)C2(CCN(Cc3ccc(Oc4ccccc4)cc3)CC2)N(CCC(C)O)C1=O.Cl (racemic)",
    "Group": "class 0"
  },
  {
    "Compound": "CCCCN1C(=O)[C@H](CC(C)C)NC(=O)C12CCN(Cc1ccc(Oc3ccccc3)cc1)CC2.Cl",
    "Group": "class 1"
  },
  {
    "Compound": "CCCCN1C(=O)C(CC(C)C)NC(=O)C12CCN(Cc1ccc(Oc3ccccc3)cc1)CC2.Cl (racemic)",
    "Group": "class 0"
  }
]

Q: Hello, is t1/2 of the following compound strictly smaller than 10 min? CCCCN1C(=O)C(CC2CCCCC2)NC(=O)C12CCN(Cc1ccc(OC)cc1)CC2.Cl (racemic)
Ans: class 1

Q: Next entry: C/C=C/CN1C(=O)C(CC(C)C)NC(=O)C12CCN(Cc1ccc(Oc3ccccc3)cc1)CC2.Cl (racemic)
Ans: class 0

Q: Try this compound next: CCCCN1C(=O)C(CCC)NC(=O)C12CCN(Cc1ccc(Oc3ccccc3)cc1)CC2.Cl (racemic)
Ans: class 0

---

Assay: Half life in rat at 3 mg/kg, iv
Assay type: ADME, organism-based
Design: dose 3 mg/kg, route intravenous
Condition: in vivo
Consider the following compounds; for each one, report its half-life.
# output: number + unit

Example entries begin here.
[
  {
    "Compound": "CCCCN1C(=O)C(CC2CCCCC2)NC(=O)C12CCN(Cc1ccc(Oc3ccccc3)cc1)CC2.Cl (racemic)",
    "half-life": "19.9 min"
  },
  {
    "Compound": "CCCCN1C(=O)C(CC(C)C)NC(=O)C12CCN(Cc1ccc(Oc3ccccc3)cc1)CC2.Cl (racemic)",
    "half-life": "13 min"
  }
]

Now look at this entry.
Q: Requested read-out: half-life. Entry: CC(C)CC1NC(=O)C2(CCN(Cc3ccc(Oc4ccccc4)cc3)CC2)N(CCC(C)O)C1=O.Cl (racemic)
Ans: 11.1 min
